Assay Overview: Tmax in Sprague-Dawley rat at 14.4 mg/kg, po by LC-MS/MS analysis
Type: ADME, organism-based
Condition Label: in vivo
Assay Endpoint: Tmax (min)
Your answer is read as min, so omit the unit and give the number.

Reported Tmax ( O=C(O)C(Cl)Cl.O=S(=O)(c1cccc2cnccc12)N1CCCNCC1 ) = 15

* * *

Assay Overview: AUC (0 to infinity) in Sprague-Dawley rat at 14.4 mg/kg, po by LC-MS/MS analysis
Format: ADME, organism-based
Design: dose 14.4 mg/kg, time infinity, route oral
Condition Label: in vivo
Assay Endpoint: AUC(0-inf)

Reported AUC(0-inf) ( O=C(O)C(Cl)Cl.O=S(=O)(c1cccc2cnccc12)N1CCCNCC1 ) = 117 ng·h/mL

* * *

Assay Overview: Plasma concentration in Sprague-Dawley rat at 12.48 mg/kg, po measured at 2 hrs by LC-MS/MS analysis
Format: ADME, organism-based
Assay Endpoint: concentration at 2 h (ng/mL)
Your answer is read as ng/mL, so omit the unit and give the number.

Reported concentration at 2 h ( Cl.O=S(=O)(c1cccc2cnccc12)N1CCCNCC1 [FASUDIL HYDROCHLORIDE] ) = 7.01

* * *

Assay Overview: AUC (0 to infinity) in Sprague-Dawley rat at 12.48 mg/kg, po by LC-MS/MS analysis
Format: ADME, organism-based
Parameters: dose 12.48 mg/kg, time infinity, route oral
Condition Label: in vivo
Assay Endpoint: AUC(0-inf)
The answer should read as a number with its unit following.

Reported AUC(0-inf) ( Cl.O=S(=O)(c1cccc2cnccc12)N1CCCNCC1 [FASUDIL HYDROCHLORIDE] ) = 59.8 ng·h/mL

* * *

Assay Overview: Elimination rate constant in Sprague-Dawley rat at 12.48 mg/kg, po by LC-MS/MS analysis
Format: ADME, organism-based
Condition Label: in vivo
Assay Endpoint: k el (s⁻¹)
Your answer is read as s⁻¹, so omit the unit and give the number.

Reported k el ( Cl.O=S(=O)(c1cccc2cnccc12)N1CCCNCC1 [FASUDIL HYDROCHLORIDE] ) = 0.000253

* * *

Assay Overview: MRT in Sprague-Dawley rat at 12.48 mg/kg, po by LC-MS/MS analysis
Assay type: ADME, organism-based
Condition Label: in vivo
Assay Endpoint: MRT (h)
Your answer is read as h, so omit the unit and give the number.

Reported MRT ( Cl.O=S(=O)(c1cccc2cnccc12)N1CCCNCC1 [FASUDIL HYDROCHLORIDE] ) = 1.2

* * *

Assay Overview: AUC (0 to t) in Sprague-Dawley rat at 12.48 mg/kg, po by LC-MS/MS analysis
Assay type: ADME, organism-based
Condition Label: in vivo
Assay Endpoint: AUC(0-t) (ng·h/mL)
Your answer is read as ng·h/mL, so omit the unit and give the number.

Reported AUC(0-t) ( Cl.O=S(=O)(c1cccc2cnccc12)N1CCCNCC1 [FASUDIL HYDROCHLORIDE] ) = 55.4

* * *

Assay Overview: Elimination rate constant in Sprague-Dawley rat at 14.4 mg/kg, po by LC-MS/MS analysis
Assay type: ADME, organism-based
Condition Label: in vivo
Assay Endpoint: k el
The answer should read as a number with its unit following.

Reported k el ( O=C(O)C(Cl)Cl.O=S(=O)(c1cccc2cnccc12)N1CCCNCC1 ) = 0.000219 s⁻¹

* * *

Assay Overview: Plasma concentration in Sprague-Dawley rat at 12.48 mg/kg, po measured at 4 hrs by LC-MS/MS analysis
Type: ADME, organism-based
Assay Endpoint: concentration at 4 h (ng/mL)
Your answer is read as ng/mL, so omit the unit and give the number.

Reported concentration at 4 h ( Cl.O=S(=O)(c1cccc2cnccc12)N1CCCNCC1 [FASUDIL HYDROCHLORIDE] ) = 3.85

* * *

Assay Overview: Plasma concentration in Sprague-Dawley rat at 12.48 mg/kg, po measured at 0.5 hrs by LC-MS/MS analysis
Format: ADME, organism-based
Assay Endpoint: concentration at 0.5 h (ng/mL)
Your answer is read as ng/mL, so omit the unit and give the number.

Reported concentration at 0.5 h ( Cl.O=S(=O)(c1cccc2cnccc12)N1CCCNCC1 [FASUDIL HYDROCHLORIDE] ) = 23.2
